- System: LOX IMVI
- assay.procedure: NCI DTP in-vitro dose response, Melanoma
- Format: cell-based
measurement.type: CC50

{"columns": ["compound.smiles", "target.or.system", "measurement.type", "observed.result"],
 "data": [
  ["CCc1nc2ccc3c(c2[nH]1)C(=O)c1ccccc1C3=O", "LOX IMVI", "CC50", "> 100 µM"],
  ["O=C1c2ccccc2C(=O)c2c1ccc1nccnc21", "LOX IMVI", "CC50", "> 100 µM"]
]}

###

- Test system: CCRF-CEM
- assay.procedure: NCI DTP in-vitro dose response, Leukemia
measurement.type: CC50

{"columns": ["compound.smiles", "observed.result"],
 "data": [
  ["O=C1c2ccccc2C(=O)c2c1ccc1nccnc21", "> 100 µM"]
]}
